Listed here: items and their measured pIC50.
- target: Diphosphomevalonate decarboxylase (Streptococcus pneumoniae serotype 2 (strain D39 / NCTC 7466), UniProt A0A0H2ZN59)
- test.method.notes: diphosphomevalonate decarboxylase inhibition dose curves – biochemical, PK/LDH-coupled NADH fluorescence, hexokinase coupling counter-screen, dose response (AID 550)
pIC50: −log10 of the molar value.
measurement.name: pIC50

1) COc1cccc(Cn2c(=S)[nH]c3ccc(N4CCOCC4)cc3c2=O)c1
4.44
2) O=C(Nc1ccc2nn(-c3ccccc3)nc2c1)c1ccc(Br)o1
4.49
3) CCc1cc2c(=O)c(-c3nc4ccccc4n3C)c(C)oc2c(CN2CCN(C)CC2)c1O
4.31
4) COc1ccc(-n2nc(C(=O)NCc3ccco3)c3c4ccccc4n(C)c3c2=O)cc1Cl
4.82
5) CCc1cc2c(=O)c(-c3nc4ccccc4[nH]3)coc2cc1OC(=O)N1CCOCC1
3.72
6) COC(=O)c1cc(NCc2c(F)cccc2Cl)ccc1N1CCOCC1
4.09
7) Cn1c(N2CCOCC2)nc(-c2ccccc2)c1-c1ccccc1
4.39

* * *

Listed here: items and their measured pIC50.
- target: Diphosphomevalonate decarboxylase (Streptococcus pneumoniae serotype 2 (strain D39 / NCTC 7466), UniProt A0A0H2ZN59)
- test.method.notes: diphosphomevalonate decarboxylase inhibition dose curves – biochemical, PK/LDH-coupled NADH fluorescence, hexokinase coupling counter-screen, dose response (AID 550)
pIC50: −log10 of the molar value.
measurement.name: pIC50

1) O=C(COc1cnc2ccccc2n1)NCCC1=CCCCC1
3.73
2) Cc1c2ccncc2c(C)c2c1[nH]c1ccccc12 [5,11-dimethyl-2H-pyrido[4,3-b]carbazole]
3.92
3) COC(=O)c1sc2nc(-c3ccco3)ccc2c1N
4.54

* * *

- target: Diphosphomevalonate decarboxylase (Streptococcus pneumoniae serotype 2 (strain D39 / NCTC 7466), UniProt A0A0H2ZN59)
- test.method.notes: diphosphomevalonate decarboxylase inhibition dose curves – biochemical, PK/LDH-coupled NADH fluorescence, hexokinase coupling counter-screen, dose response (AID 550)
pIC50: −log10 of the molar value.
Listed here: items and their measured pIC50.
measurement.name: pIC50

1. O=C(NCc1ccco1)c1ccccc1NS(=O)(=O)c1ccc2c(c1)OCCO2
4.37
2. COc1ccc(-c2nn3c(-c4ccccn4)nnc3s2)cc1OC
4.05
3. CC(C)c1nc2oc3c(NCc4ccccn4)ncnc3c2c2c1COC(C)(C)C2
3.09
4. COc1ccc2nc3oc(C(=O)NCc4cccs4)cc3cc2c1
4.86
5. CC1(C)Cc2nc3sc4c(=O)[nH]cnc4c3cc2CS1
3.97

* * *

- target: Diphosphomevalonate decarboxylase (Streptococcus pneumoniae serotype 2 (strain D39 / NCTC 7466), UniProt A0A0H2ZN59)
- test.method.notes: diphosphomevalonate decarboxylase inhibition dose curves – biochemical, PK/LDH-coupled NADH fluorescence, hexokinase coupling counter-screen, dose response (AID 550)
Listed here: items and their measured IC50.
measurement.name: IC50

1. COC(=O)c1cc(OC)c(OC)cc1NC(=O)c1oc2ccccc2c1C
> 10 mM
2. Cc1ccc2oc(=O)c3cnn(CC(=O)NC4CCN(Cc5ccccc5)CC4)c3c2c1
> 10 mM
3. COC(=O)Cn1c(=NC(=O)CSC(C)=O)sc2ccccc21
> 10 mM
4. Cc1cc(O)cc(C)n1 [2,6-dimethyl-1H-pyridin-4-one]
> 10 mM
5. CCOC(=O)N1CCC(NC(=O)CSc2cc(=O)n(C)c3ccccc23)CC1
0.399 mM

* * *

- target: Diphosphomevalonate decarboxylase (Streptococcus pneumoniae serotype 2 (strain D39 / NCTC 7466), UniProt A0A0H2ZN59)
- test.method.notes: diphosphomevalonate decarboxylase inhibition dose curves – biochemical, PK/LDH-coupled NADH fluorescence, hexokinase coupling counter-screen, dose response (AID 550)
pIC50: −log10 of the molar value.
measurement.name: pIC50

1) CCOc1ccc(N(CC(=O)NC2CCCC(C)C2C)S(=O)(=O)c2c(C)noc2C)cc1 (stereo not given)
< 2.00
2) COc1ccc(C(c2nnnn2CC2CCCO2)N2CCN(c3ccccc3)CC2)cc1 (stereo not given)
< 2.00
3) CCOC(=O)c1sc(Nc2nc3c(OC)cccc3s2)nc1C
5.63
4) COc1cc(NC(=O)c2cccs2)c(C(=O)OCC(=O)NCc2ccco2)cc1OC
< 2.00
5) Cc1cnc(SCCc2ccncc2)nc1C
< 2.00
6) COc1cc2c(C#N)c(N3CCN(c4ccccc4OC)CC3)nc(N)c2c(N)n1
< 2.00
7) CCOC(=O)c1cc2nc(Nc3ccc(OC)cc3)sc2s1
4.35
8) Cn1c(-c2ccc(N)cc2)nc2ccccc21
< 2.00
9) O=C1NC(=O)C(CC(=O)N(c2ccccc2)C2(C(=O)NC3CCCC3)CCCCC2)N1 (stereo not given)
< 2.00
10) COc1ccc(-c2cc(C(F)(F)F)n3nc(C(=O)N4CCC5(CC4)OCCO5)cc3n2)cc1OC
4.12

* * *

- target: Diphosphomevalonate decarboxylase (Streptococcus pneumoniae serotype 2 (strain D39 / NCTC 7466))
- test.method.notes: diphosphomevalonate decarboxylase inhibition dose curves – biochemical, PK/LDH-coupled NADH fluorescence, hexokinase coupling counter-screen, dose response (AID 550)
Listed here: items and their measured IC50.
measurement.name: IC50

1. CCOC(=O)c1c(C)[nH]c(C(=O)COC(=O)c2ccccc2NC(=O)c2ccco2)c1C
62.8 µM
2. Cc1c(C(=O)NCc2ccc3c(c2)OCO3)sc2nc(-c3ccccc3)cn12
> 10000 µM
3. C=CCNc1nc(N2CCCC2)nc2ccccc12
66.6 µM
4. Cc1coc2cc3oc(=O)c4c(c3cc12)CCC4
52.9 µM
5. Cc1ccc(-n2sc3ccccc3c2=O)cc1S(=O)(=O)N1CCCCC1
3.73 µM

* * *

- target: Diphosphomevalonate decarboxylase (Streptococcus pneumoniae serotype 2 (strain D39 / NCTC 7466), UniProt A0A0H2ZN59)
- Sequence (A0A0H2ZN59 whole entry): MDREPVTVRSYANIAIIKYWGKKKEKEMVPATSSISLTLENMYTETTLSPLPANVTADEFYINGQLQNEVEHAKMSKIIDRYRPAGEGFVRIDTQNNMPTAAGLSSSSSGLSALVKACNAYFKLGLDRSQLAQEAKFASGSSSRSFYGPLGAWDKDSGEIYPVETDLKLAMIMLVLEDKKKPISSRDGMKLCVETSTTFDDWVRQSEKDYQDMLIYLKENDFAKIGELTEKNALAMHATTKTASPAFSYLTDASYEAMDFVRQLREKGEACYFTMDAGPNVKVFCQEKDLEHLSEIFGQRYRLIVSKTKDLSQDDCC
- test.method.notes: diphosphomevalonate decarboxylase inhibition dose curves – biochemical, PK/LDH-coupled NADH fluorescence, hexokinase coupling counter-screen, dose response (AID 550)
Note to self: IC50 under 70 µM means Satisfied, ties and anything higher get Not satisfied.

1) O=C1CCC(C(=O)N(Cc2ccco2)C2(C(=O)NC3CCCC3)CCCCC2)N1 (stereo not given)
Not satisfied
2) O=C1CC(c2cccnc2)c2cc3c(cc2N1)OCO3 (stereo not given)
Not satisfied
3) COc1ccc(NC(=O)c2nnn(Cc3ccc(SC)cc3)c2N)c(OC)c1
Satisfied
4) O=c1[nH]c2cc3c(cc2cc1CN(CCCO)Cc1nnnn1Cc1ccc(F)cc1)OCO3
Satisfied
5) CCOc1nc(-c2ccccc2)ccc1-c1noc(-c2ccc(OC)c(OC)c2)n1
Not satisfied
6) CC(C)CNC(=O)COc1ccc2c3c(c(=O)oc2c1)CCC3
Satisfied
7) Cc1cc(=O)[nH]c(NC(N)=Nc2cccc3ccccc23)n1
Not satisfied
8) COc1ccc2[nH]c(=O)c(CN(CC3CCCO3)C(=O)Nc3ccccc3)cc2c1 (stereo not given)
Not satisfied
9) Nc1cc(N)cc(-c2nc3ccccc3[nH]2)c1
Not satisfied
10) FC(F)(F)c1cc(-c2ccco2)nc(-n2nnc3ccccc32)n1
Satisfied

* * *

- target: Diphosphomevalonate decarboxylase (Streptococcus pneumoniae serotype 2 (strain D39 / NCTC 7466), UniProt A0A0H2ZN59)
- Sequence (A0A0H2ZN59 whole entry): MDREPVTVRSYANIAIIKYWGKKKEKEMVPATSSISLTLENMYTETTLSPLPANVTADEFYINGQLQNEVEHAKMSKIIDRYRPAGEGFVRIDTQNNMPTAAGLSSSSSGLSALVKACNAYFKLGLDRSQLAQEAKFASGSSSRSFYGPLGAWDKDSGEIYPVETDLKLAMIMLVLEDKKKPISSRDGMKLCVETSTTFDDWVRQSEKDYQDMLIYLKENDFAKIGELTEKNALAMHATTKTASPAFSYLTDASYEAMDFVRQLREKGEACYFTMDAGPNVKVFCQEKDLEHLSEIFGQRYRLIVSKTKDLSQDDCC
- test.method.notes: diphosphomevalonate decarboxylase inhibition dose curves – biochemical, PK/LDH-coupled NADH fluorescence, hexokinase coupling counter-screen, dose response (AID 550)
pIC50: −log10 of the molar value.
Listed here: items and their measured pIC50.
measurement.name: pIC50

1. Cc1ccc(S(=O)(=O)NCCN2CCOCC2)cc1C
< 2.00
2. COc1ccc2c(c1)C1(C)CC(C)(C)N2C(=O)N1c1ccccc1 (stereo unspecified)
3.74
3. Cc1cc(O)c(C=Nc2cccc(Cl)c2)c(=O)o1
< 2.00
4. c1ccc(N2CCN(c3cnccn3)CC2)nc1
< 2.00
5. Cc1ccccc1-c1nc2cc(N)ccc2o1
4.99
6. CCOc1ccc(N2CC(C(=O)OC)CC2=O)cc1 (stereo unspecified)
< 2.00
7. Cc1nc(-c2cnn(-c3ccccc3)c2)c2cc(C)oc2n1
< 2.00
8. CC(C)c1nc(NCC2CCCO2)c(C#N)c2c1COC(C)(C)C2 (stereo unspecified)
5.00
9. CCOc1cc(NC(=O)c2ccco2)c(OCC)cc1NC(=O)CCc1ccc(OC)cc1
< 2.00
10. Cc1cc(C)c(S(=O)(=O)NCc2cn3c(C)csc3n2)cc1C
< 2.00
11. CN(C)S(=O)(=O)c1cccc(C(=O)C2=C3SC=C(c4ccccc4)N3CC2)c1
< 2.00
12. CN(C)C(=O)N1CCC(C(=O)NCc2cccs2)CC1
< 2.00
13. Cc1ccccc1CN1CCN(S(=O)(=O)c2ccc(F)cc2)CC1
< 2.00
14. COCCn1cc(C(=O)NCCCN2CCC(C)CC2)c2c3ccccc3n(C)c2c1=O
4.57
15. Cc1cccc2cc(CN(Cc3ccco3)S(=O)(=O)c3ccc4c(c3)OCCO4)c(=O)[nH]c12
< 2.00
16. COC(=O)c1cc(Cl)c(NS(=O)(=O)c2ccccc2)cc1OC
4.49
17. COc1ccccc1N1CCN(C(=O)CSc2nnc(NC(=O)c3ccco3)s2)CC1
3.58
18. CCc1ccc(CCC(=O)Nc2ccc(C)c(C)c2)o1
< 2.00
19. NC(=O)c1ccsc1NC(=O)c1nc(-c2ccccc2)n(-c2ccccc2)n1
4.25
20. COc1ccc(-c2ccc(-c3nnc(-c4ccncc4)o3)cc2)cc1
3.91
21. CCCCC(=O)Nc1ccc(C(N)=O)cc1 [4-(1-oxopentylamino)benzamide]
< 2.00
